Known protein stability index of a selection of sequences
Assay: protein stability index of a GFP-peptide fusion (GPS, HEK-293T) (PSI 1-6); higher = more stable;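 note: 24-mer peptide tiles fused after GFP, lentivirally expressed, FACS-sorted into six equal bins by GFP/DsRed ratio, decoded by Illumina sequencing, PSI is the read-weighted mean bin number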
Conditions: treatment: MLN4924 1 uM, 8 h; c terminus: a fixed tail appended

entry-sequence	protein stability index
QNQPIDKARKTYERLVAQFPSSGR [CSTF3]	3.9
CLLVLRLFLGIHVFLVSCALPDSV [AUP1]	3.09
EYIVKKLSRQEFLGMVGLFGTIIS [SLC35F2]	2.44
DFSMAEALNQEFLATRSNEKQELQ [PRPH]	4.95
GGFGQVYKVRHVHWKTWLAIKCSP [RIPK4]	2.05
ILGGSGPVRKLYDDCSSTIVEDPQ [ESRRG]	4.41
TLIDGGEHYWEVRYEPDSKAFGVG [FSD1]	2.86
AVGGRNAAGELPTVECYNPRTNEW [KLHL13]	4.33
VETLLRHGAHINLQSLKFQGGHGP [RIPK4]	3.11
VLDFDFEKLCSISLSHINAYACLV [USP39]	2.56
HSTSLKVPLARSLQISEELLSRNQ [LCOR]	3.97
PGRPARLDQLLDMPAAGLAVQLRH [SPSB4]	3.33
SSDMMDSSSFSNLDLSEEDSDDPS [VDR]	5.63
EASQLRRLNIKKDDEFFHFVLLCF [TMEM40]	2.22
IRGRYLVALGHAYHPEEFVCSQCG [PDLIM7]	2.77
ILTIMATLKIRNSNFYTVAVTSLS [TMEM106C]	3.16
DSDIPEIPPSSDRTPEILKKALSG [CDS1]	5.39
KLSGFMSKLVPAIQNAHKNSTGSG [TPRG1]	3.03
LNILIQSLDWETFEQYCAWQLFLA [INTS3]	2.62
DIDGDVLVFLELAQFHCAYQLADW [RHOBTB2]	3.23
SAKTRQRVEDAFYTLVREIRQYRL [KRAS]	2.31
CRRSVRLALGRERLGEIHTLPLPA [SPSB1]	2.98
LFLKDVLGDEICCWSFYGQGRKIA [KCTD13]	2.07
VGSGGRRDSTARRPRPQGRSVSEP [RTN2]	5.19
GAIAQSSIYPMEVLKTRMALRKTG [SLC25A25]	3.74

Just for reference, the supplement of paper PMC10567573 is where these values come from.
